Tested on: PC-3
Assay: NCI one-dose screen
Type: cell-based
Conditions: Homo sapiens; PC-3, 10 µM; read-out: Growth Percent
Some compounds, each annotated with its measured activity at 10 µM.
Hi! Could you send only the number? It should be in %, unit omitted.

Recorded results for 3 compounds are shown here.
Compound: COc1ccc(/C=C/C(=O)c2ccc(-n3cc(CN4CCN(c5cc6c(cc5F)c(=O)c(C(=O)O)cn6C5CC5)CC4)nn3)cc2)cc1OC [Compound 4i]
activity at 10 µM [%]: 56.3

Compound: O=C(/C=C/c1ccc(Br)cc1)c1ccc(-n2cc(CN3CCN(c4cc5c(cc4F)c(=O)c(C(=O)O)cn5C4CC4)CC3)nn2)cc1 [Compound 4d]
activity at 10 µM [%]: 84.7

Compound: O=C(/C=C/c1ccc(Cl)cc1)c1ccc(-n2cc(CN3CCN(c4cc5c(cc4F)c(=O)c(C(=O)O)cn5C4CC4)CC3)nn2)cc1 [Compound 4c]
activity at 10 µM [%]: 79.3

Q. Item under review: O=C(/C=C/c1ccc(F)cc1)c1ccc(-n2cc(CN3CCN(c4cc5c(cc4F)c(=O)c(C(=O)O)cn5C4CC4)CC3)nn2)cc1 [Compound 4e] . Reported activity at 10 µM?
A. 57.4

Q. Item under review: O=C(/C=C/c1cccc(Cl)c1)c1ccc(-n2cc(CN3CCN(c4cc5c(cc4F)c(=O)c(C(=O)O)cn5C4CC4)CC3)nn2)cc1 [Compound 4b] . Reported activity at 10 µM?
A. 74

Q. Item under review: COc1ccc(/C=C/C(=O)c2ccc(-n3cc(CN4CCN(c5cc6c(cc5F)c(=O)c(C(=O)O)cn6C5CC5)CC4)nn3)cc2)cc1 [Compound 4g] . Reported activity at 10 µM?
A. 89
